Target: JAK3 (Homo sapiens)
Sequence (P52333 whole entry): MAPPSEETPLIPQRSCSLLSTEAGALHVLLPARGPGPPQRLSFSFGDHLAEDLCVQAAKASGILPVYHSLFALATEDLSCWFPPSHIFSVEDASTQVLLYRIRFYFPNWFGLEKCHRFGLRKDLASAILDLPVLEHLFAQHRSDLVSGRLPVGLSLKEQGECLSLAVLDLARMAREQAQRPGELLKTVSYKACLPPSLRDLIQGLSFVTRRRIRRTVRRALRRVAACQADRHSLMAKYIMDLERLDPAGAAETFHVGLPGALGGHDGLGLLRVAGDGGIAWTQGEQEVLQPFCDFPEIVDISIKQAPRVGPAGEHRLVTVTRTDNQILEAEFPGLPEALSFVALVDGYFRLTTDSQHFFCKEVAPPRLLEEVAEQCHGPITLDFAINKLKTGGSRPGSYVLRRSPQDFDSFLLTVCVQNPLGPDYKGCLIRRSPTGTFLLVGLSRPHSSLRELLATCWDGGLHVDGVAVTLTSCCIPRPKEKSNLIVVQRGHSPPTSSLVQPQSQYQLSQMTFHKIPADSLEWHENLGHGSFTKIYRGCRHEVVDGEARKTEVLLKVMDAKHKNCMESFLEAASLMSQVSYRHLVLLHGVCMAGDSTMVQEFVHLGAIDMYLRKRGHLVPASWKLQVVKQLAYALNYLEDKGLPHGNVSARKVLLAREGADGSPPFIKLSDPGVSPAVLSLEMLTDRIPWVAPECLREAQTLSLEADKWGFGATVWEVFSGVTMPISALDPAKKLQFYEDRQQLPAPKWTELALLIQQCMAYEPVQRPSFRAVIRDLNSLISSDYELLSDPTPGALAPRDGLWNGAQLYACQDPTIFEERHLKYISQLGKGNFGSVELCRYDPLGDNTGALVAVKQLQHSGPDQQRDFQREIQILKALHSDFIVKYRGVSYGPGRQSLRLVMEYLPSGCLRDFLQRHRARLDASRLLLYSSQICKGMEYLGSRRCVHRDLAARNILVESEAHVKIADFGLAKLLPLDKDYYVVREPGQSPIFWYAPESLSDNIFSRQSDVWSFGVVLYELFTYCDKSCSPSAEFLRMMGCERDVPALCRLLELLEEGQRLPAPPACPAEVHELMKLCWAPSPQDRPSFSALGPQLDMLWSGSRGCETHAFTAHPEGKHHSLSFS
Test: Biochemical JAK3 kinase assay (LanthaScreen)
Design: GST; purchased Life Technologies
Conditions: read-out: JAK 3 (pKi) (converted)
Listed here: items and their measured Ki.

Reference set, count: 6
molecule: CN(C)C/C=C/C(=O)N1CC2(CCC2Oc2cc(-c3ccc(O)cc3)cc3[nH]ncc23)C1 (stereo not shown)
test.target: JAK3 (Homo sapiens)
measured.property: Ki
result: 0.1 to 1 nM

molecule: CN(C)C/C=C/C(=O)N1CC2(CC(Oc3cc(-c4ccc(O)cc4)cc4[nH]ncc34)C2)C1
test.target: JAK3 (Homo sapiens)
measured.property: Ki
result: 0.1 to 1 nM

molecule: C=CC(=O)N1CCC(Oc2cc(-c3ccc(O)c(Cl)c3)nc3[nH]ncc23)CC1
test.target: JAK3 (Homo sapiens)
measured.property: Ki
result: < 0.1 nM

molecule: C=CC(=O)N1CC(C#N)(COc2cc(-c3ccc(O)c(Cl)c3)cc3[nH]ncc23)C1
test.target: JAK3 (Homo sapiens)
measured.property: Ki
result: < 0.1 nM

molecule: CN(C)C/C=C/C(=O)N1CC(F)(C2(Oc3cc(-c4ccc(O)cc4)cc4[nH]ncc34)CC2)C1
test.target: JAK3 (Homo sapiens)
measured.property: Ki
result: < 0.1 nM

molecule: C=CC(=O)N1CC[C@H](Oc2cc(-c3ccc(O)c(F)c3)nc3[nH]nc(C)c23)C1
test.target: JAK3 (Homo sapiens)
measured.property: Ki
result: 0.1 to 1 nM

In the following, a different molecule is considered.
# input Query: Ki; subject: `Cc1cc(O)c(F)cc1-c1cc(O[C@H]2CCN(C(=O)/C=C/CN(C)C)C2)c2cn[nH]c2c1`
# output 0.1 to 1 nM

---

Molecular target: JAK3 (Homo sapiens)
Test: Biochemical JAK3 kinase assay (LanthaScreen)
Parameters: GST; purchased Life Technologies
Details: selectivity: difference of pKi JAK3 and pKi JAK1

compound.smiles: C=CC(=O)N1CC[C@H](Oc2cc(-c3ccc(O)cc3)cc3[nH]nc(Cl)c23)C1
JAK3 (pKi)-JAK1 (pKi): B (a value of 2.3 to 3)
--
compound.smiles: CN(C)C/C=C/C(=O)N1CC[C@H](COc2cc(-c3ccc(O)cc3)cc3[nH]ncc23)C1
JAK3 (pKi)-JAK1 (pKi): B (a value of 2.3 to 3)
--
compound.smiles: CN(C)C/C=C/C(=O)N1CC[C@H](COc2nc(-c3ccc(O)c(F)c3)cc3[nH]ncc23)C1
JAK3 (pKi)-JAK1 (pKi): B (a value of 2.3 to 3)
--
compound.smiles: CN(C)C/C=C/C(=O)N1CC[C@H](COc2nc(-c3ccc(O)c(Cl)c3)cc3[nH]ncc23)C1
JAK3 (pKi)-JAK1 (pKi): B (a value of 2.3 to 3)

---

Test system: IL-2 stimulated pSTAT5 in Tall-1 T cells
Test: Cellular JAK3 potency assay: inhibition of IL-2 stimulated pSTAT5 in Tall-1 T cells
Format: cell-based, human
Conditions: Homo sapiens, TALL-1, IL-2 stimulated pSTAT5 in Tall-1 T cells; read-out: Tall-1 (pIC50) (converted)
measured.property: IC50

Reference set, count: 5
compound.smiles: CN(C)C/C=C/C(=O)N1CC(F)(COc2nc(-c3ccc(O)c(Cl)c3)nc3[nH]ncc23)C1
result: 31.6 to 200 nM
//
compound.smiles: COCCN(C)C/C=C/C(=O)N1CC(COc2cc(-c3ccc(O)cc3)cc3[nH]ncc23)C1
result: 31.6 to 200 nM
//
compound.smiles: CN(C)C/C=C/C(=O)N1CC[C@H](Oc2cc(-c3ccc(O)c(F)c3)cc3[nH]ncc23)C1
result: 200 to 1000 nM
//
compound.smiles: C=CC(=O)N1CC[C@H](Oc2cc(-c3ccc(O)c(F)c3)cc3[nH]ncc23)C1
result: < 31.6 nM
//
compound.smiles: C=CS(=O)(=O)N1CC[C@H](Oc2cc(-c3ccc(O)cc3)cc3[nH]ncc23)C1
result: < 31.6 nM

# input Query: IC50; subject: `CN1CCC[C@@H]1/C=C/C(=O)N1CC[C@H](Oc2cc(-c3ccc(O)cc3)cc3[nH]ncc23)C1`
# output 200 to 1000 nM

# input Try this compound too: `C=CC(=O)N1CC(F)(COc2cc(-c3ccc(O)cc3)cc3[nH]ncc23)C1`
# output < 31.6 nM
